Numbers sourced from paper PMC12529457.

Biological target: T1, PTH (1-34) (UniProt P01270 32-65)
T1 chain: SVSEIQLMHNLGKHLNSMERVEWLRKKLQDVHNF
Assay: fluorescent magnetic bead binding assay; peptide on beads, aptamer 100-2500 nM; Bead assay: SELEX conditions (PBS, room temperature), 30 min incubation then wash, pH not stated; EIS: 30 min at ambient temperature, PBS wash, read in 0.1 M KCl with 5 mM ferri/ferrocyanide
Conditions: protein: commercial; tags: none stated; amine-coupled to carboxy magnetic beads
MEASURE NAME: Kd (nM)
The reply should be a number in nM, with the unit left off.

*Q* State the recorded Kd for this entry: GCGTGGTATGTGCATCGTCAGTGAGGGGTTGGCGGCCGAG (ssDNA) [Aptamer-PTH (1-34)]
*A* 516
